# Tested on: HT29 colon
# assay: NCI-60 one-dose screen, 48 h
# assayContext: 10 µM unless noted
The panel holds about 83,000 compounds, 20% with a hit somewhere; the sample as a whole holds those more often. Calls of active or inactive are those of the source. The calls were made as follows: active = growth percent below 10; inactive = the rest.
Mark one answer only. Choices: active, inactive

>>> categorylabel("CC(=O)CC(C)(C)c1ccc(Cl)cc1")
"inactive"
>>> categorylabel("N#CC1=C(N)Oc2c(ccc3ccccc23)C1c1cccs1 (stereo not given)")
"active"
>>> categorylabel("CC/C(Cc1ccccc1)=C(/c1ccc(O)cc1)c1ccc(OCCN2CCCC2)cc1")
"active"
>>> categorylabel("CN1CCN(Cc2ccc(NC(=O)c3cncc(C#Cc4c(N)ncc5ccc(C#N)cc45)c3)cc2C(F)(F)F)CC1")
"active"
>>> categorylabel("CCN(CC)c1ccc(CNc2cc(C)nc3ccc(OC)cc23)cc1")
"active"

IN: // param item: CCN(CC)CCCC(C)Nc1ccnc2c(OC)cccc12 (stereo not given) ; yields the recorded call
OUT: inactive

IN: Then what about the molecule Cc1ccc(C2CC3c4ccccc4C2C2CCCCN32)cc1 (stereo not given) ?
OUT: inactive

IN: Then what about the molecule COc1ccc(OCC(=O)Nc2ccc(-c3nc4ccccc4s3)cc2C)cc1 ?
OUT: inactive

IN: Then what about the molecule C=C1CC2(OC1=O)C(=O)Nc1ccccc12 (stereo not given) ?
OUT: inactive

IN: Then what about the molecule COc1cc(OC)c(/C=C/S(=O)(=O)Cc2ccc(OC)c(N)n2)c(OC)c1 ?
OUT: active

IN: Then what about the molecule COc1ccc(C2Nc3ccccc3-n3cccc32)cc1 (stereo not given) ?
OUT: inactive

IN: Then what about the molecule CC1=NNC(=O)C1C (stereo not given) ?
OUT: inactive

IN: Then what about the molecule CC(=O)C1=C(O)C=C2Oc3c(C(=O)/C=C/c4c(Cl)cccc4Cl)c(O)c(C)c(O)c3[C@]2(C)C1=O ?
OUT: active

IN: Then what about the molecule CCC(c1ccc(O)cc1)C(CC)c1ccc(O)c(F)c1 (stereo not given) ?
OUT: inactive

IN: Then what about the molecule O=C(Nc1cccc2c1C(=O)c1cccc(Nc3cccc4c3C(=O)c3cccc(NC(=O)c5ccccc5)c3C4=O)c1C2=O)c1ccccc1 ?
OUT: inactive

IN: Then what about the molecule COc1nc2c(cc1S(=O)(=O)c1ccccc1)CCc1c-2cnn1Cc1ccccc1 ?
OUT: inactive

IN: Then what about the molecule CCOC(=O)c1c2ncccc2n2c(=O)n(-c3ccc(Cl)cc3)nnc12 ?
OUT: inactive

---

# System: NCI-H226 lung
# assay: NCI-60 one-dose screen, 48 h (100 = growth as untreated, 0 = no growth, -100 = all killed)
# assayContext: 10 µM unless noted
# Protocol: Growth inhibition of the NCI-H226 human Non-Small Cell Lung tumor cell line is measured as a screen for anti-cancer activity. Cells are grown in 96 well plates and exposed to the test compound for 48 hours. Compounds are tested at a single concentration, which is 10^-5 M for most compounds. The reported endpoint is percent growth (GI% or GIPRCNT), where numbers from 0 - 100% represent growth inhibition, and numbers from -100% - 0 represent cell death. […]
The panel holds about 83,000 compounds, 20% with a hit somewhere; the sample as a whole holds those more often.
propertyName: growth (%)
Numbers only, in %.

Some compounds with known growth results, for comparison:
>>> testresult("CCCCCN(CCCCC)CCC[C@@H](C)[C@H]1CC[C@H]2[C@@H]3[C@H](OCCCN)C[C@@H]4C[C@H](OCCCN)CC[C@]4(C)[C@H]3C[C@H](OCCCN)[C@]12C")
75.2
>>> testresult("CCOC(=S)SCc1ccc(Cl)cc1")
101
>>> testresult("COc1ncc(-c2ccc3ncnc(Nc4cccc(Cl)c4)c3c2)cc1NS(C)(=O)=O")
47.2
>>> testresult("CCCCCCNC(=O)Oc1ccc(/C(=C(\\C)c2ccccc2)c2ccc(OCCN(CC)CC)cc2)cc1")
82.6
>>> testresult("CCCCOc1ccc(NC(=O)n2nc(NC(C)=O)c3cc(NC(C)=O)ccc32)cc1")
99

IN: Entry COc1ccc(C(=O)c2sc3nc4c(cc3c2N)CCCC4)cc1OC : reported growth = ?
OUT: 37.1
